Kindly supply the reported IC50 values for the records listed here.
Target of assay: Tyrosine-protein kinase receptor UFO (Homo sapiens, UniProt P30530)
Sequence (P30530 whole entry): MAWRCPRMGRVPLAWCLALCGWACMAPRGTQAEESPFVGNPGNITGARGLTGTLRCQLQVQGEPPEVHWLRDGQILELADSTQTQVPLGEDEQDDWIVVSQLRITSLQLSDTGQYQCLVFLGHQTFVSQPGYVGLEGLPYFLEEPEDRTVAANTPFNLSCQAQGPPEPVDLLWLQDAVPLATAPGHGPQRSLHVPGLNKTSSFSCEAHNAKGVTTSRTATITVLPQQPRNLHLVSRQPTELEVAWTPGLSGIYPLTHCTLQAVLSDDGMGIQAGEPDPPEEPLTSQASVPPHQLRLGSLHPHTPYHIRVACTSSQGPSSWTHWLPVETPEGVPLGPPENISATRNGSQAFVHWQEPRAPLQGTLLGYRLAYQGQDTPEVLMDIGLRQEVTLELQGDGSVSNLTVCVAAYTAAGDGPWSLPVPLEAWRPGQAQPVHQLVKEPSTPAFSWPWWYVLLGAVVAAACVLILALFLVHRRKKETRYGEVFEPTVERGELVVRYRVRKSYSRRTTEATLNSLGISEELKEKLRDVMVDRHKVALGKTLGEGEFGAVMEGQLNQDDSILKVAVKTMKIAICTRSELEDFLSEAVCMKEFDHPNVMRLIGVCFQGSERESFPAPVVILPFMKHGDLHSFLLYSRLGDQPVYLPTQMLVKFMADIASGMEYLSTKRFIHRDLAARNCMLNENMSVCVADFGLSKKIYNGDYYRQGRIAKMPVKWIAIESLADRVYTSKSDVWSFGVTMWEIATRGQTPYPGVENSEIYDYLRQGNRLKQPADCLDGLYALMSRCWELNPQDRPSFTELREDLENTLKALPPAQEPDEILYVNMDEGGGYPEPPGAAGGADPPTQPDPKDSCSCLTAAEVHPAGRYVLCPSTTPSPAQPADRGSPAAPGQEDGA
Procedure details: Inhibition of autophosphorylation AXL (unknown origin) expressed in HEK293 cells assessed as NanoLuc activity associated with phosphorylated proteins measured after 1 hr incubation by intracellular pAXL-ELISA
Type: cell-based
Numbers only, in nM.

Some solved cases for reference:
O=C1OCCN1c1ccc(-c2n[nH]c3ncc(-c4ccc5c(c4)CC[C@@H](N4C6COCC4C6)CC5)cc23)cc1 :: 390
CCc1cccnc1-c1ccc(-c2n[nH]c3ncc(-c4ccc5c(c4)CC[C@@H](N4C6COCC4C6)CC5)cc23)cc1 :: 190
FC(F)(F)c1cccnc1-c1ccc(-c2n[nH]c3ncc(-c4ccc5c(c4)CC[C@@H](N4C6COCC4C6)CC5)cc23)cc1 :: 730
Cc1cccnc1-c1ccc(-c2c[nH]c3ncc(-c4ccc5c(c4)CC[C@@H](N4C6COCC4C6)CC5)cc23)cc1 :: 67
COc1cccnc1-c1ccc(-c2n[nH]c3ncc(-c4ccc5c(c4)CC[C@@H](N4C6COCC4C6)CC5)cc23)cc1 :: 120

Each molecule below has a reported value. Please supply its IC50.
1. Cc1cccnc1-c1ccc(-c2n[nH]c3ncc(-c4ccc5c(c4)CC[C@@H](N[C@H]4CCCOC4)CC5)cc23)cc1
2. Cc1cccnc1-c1ccc(-c2n[nH]c3ncc(-c4ccc5c(c4)CC[C@@H](N4C6COCC4C6)CC5)cc23)cc1

Found:
1: 100; 2: 65

---

Procedure details: AUC (0 to 24 hrs) in human (healthy individuals) at 30 mg, single oral dose
Assay type: ADME
Test settings: in vivo
Quantity kind: AUC(0-t)
Write the numeric value and append its unit.

Lookup: Would you kindly share the measured AUC(0-t) for Cc1cccnc1-c1ccc(-c2n[nH]c3ncc(-c4ccc5c(c4)CC[C@@H](N4C6COCC4C6)CC5)cc23)nc1 ?
Found: 189 ng·h/mL

---

Target of assay: Cytochrome P450 2D6 (Homo sapiens)
Sequence (P10635 whole entry): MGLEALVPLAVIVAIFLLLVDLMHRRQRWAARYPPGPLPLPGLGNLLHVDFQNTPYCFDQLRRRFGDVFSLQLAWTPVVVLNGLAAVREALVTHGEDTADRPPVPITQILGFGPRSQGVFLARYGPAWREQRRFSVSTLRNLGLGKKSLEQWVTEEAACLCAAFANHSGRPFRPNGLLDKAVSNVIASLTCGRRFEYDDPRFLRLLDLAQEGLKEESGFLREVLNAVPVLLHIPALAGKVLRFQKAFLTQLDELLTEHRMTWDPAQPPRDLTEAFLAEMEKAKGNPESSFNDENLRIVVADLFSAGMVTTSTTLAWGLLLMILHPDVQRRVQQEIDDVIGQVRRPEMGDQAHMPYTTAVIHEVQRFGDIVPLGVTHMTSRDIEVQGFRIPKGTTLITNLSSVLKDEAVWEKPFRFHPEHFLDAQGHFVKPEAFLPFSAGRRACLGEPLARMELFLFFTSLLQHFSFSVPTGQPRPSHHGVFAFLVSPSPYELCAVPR
Quantity kind: pIC50
Answers are plain numbers, as −log10 of the molar value.

Lookup: Would you kindly share the measured pIC50 for Cc1cccnc1-c1ccc(-c2n[nH]c3ncc(-c4ccc5c(c4)CC[C@@H](N4C6COCC4C6)CC5)cc23)nc1 ?
Found: 4.96

---

Target of assay: UniProt Q12809
Sequence (Q12809 whole entry): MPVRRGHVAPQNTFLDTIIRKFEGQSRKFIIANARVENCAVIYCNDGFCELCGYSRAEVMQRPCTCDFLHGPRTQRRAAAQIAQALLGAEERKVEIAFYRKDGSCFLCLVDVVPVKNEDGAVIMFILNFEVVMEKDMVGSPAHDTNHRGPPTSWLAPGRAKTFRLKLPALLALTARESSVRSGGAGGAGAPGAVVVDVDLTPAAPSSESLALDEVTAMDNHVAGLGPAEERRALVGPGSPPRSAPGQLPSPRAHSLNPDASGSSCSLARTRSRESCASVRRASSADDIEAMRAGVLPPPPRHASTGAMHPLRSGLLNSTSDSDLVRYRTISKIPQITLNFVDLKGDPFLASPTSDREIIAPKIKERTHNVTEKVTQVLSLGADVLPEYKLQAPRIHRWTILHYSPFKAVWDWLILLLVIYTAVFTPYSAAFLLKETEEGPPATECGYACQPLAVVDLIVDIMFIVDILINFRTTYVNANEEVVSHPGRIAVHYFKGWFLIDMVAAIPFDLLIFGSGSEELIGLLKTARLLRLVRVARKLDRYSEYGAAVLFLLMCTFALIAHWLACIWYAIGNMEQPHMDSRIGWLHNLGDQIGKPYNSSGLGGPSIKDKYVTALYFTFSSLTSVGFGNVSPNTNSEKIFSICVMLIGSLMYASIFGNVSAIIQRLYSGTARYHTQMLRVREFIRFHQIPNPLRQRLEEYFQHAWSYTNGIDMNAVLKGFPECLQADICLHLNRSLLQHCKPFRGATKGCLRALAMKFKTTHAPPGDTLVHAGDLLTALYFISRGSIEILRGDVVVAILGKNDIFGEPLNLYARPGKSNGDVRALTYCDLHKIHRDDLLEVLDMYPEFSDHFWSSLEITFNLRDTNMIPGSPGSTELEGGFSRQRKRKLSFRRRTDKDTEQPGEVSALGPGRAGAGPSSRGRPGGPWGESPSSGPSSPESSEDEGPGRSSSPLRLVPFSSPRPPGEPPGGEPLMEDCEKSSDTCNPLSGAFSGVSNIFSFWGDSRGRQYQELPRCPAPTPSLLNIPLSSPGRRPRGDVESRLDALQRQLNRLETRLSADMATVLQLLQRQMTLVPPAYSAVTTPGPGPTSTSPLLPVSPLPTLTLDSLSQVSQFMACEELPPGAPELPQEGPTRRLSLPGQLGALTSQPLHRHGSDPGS
Procedure details: Inhibition of hERG at 10 uM by high throughput cell based patch clamp assay
Format: toxicity
Kindly supply the reported inhibition at 10 µM values for the records listed here.
Answers are plain numbers, in %.

Some solved cases for reference:
Cc1cccnc1-c1ccc(-c2n[nH]c3ncc(-c4ccc5c(c4)CC[C@@H](N4C6COCC4C6)CC5)cc23)cc1 :: 23
Cc1cccnc1-c1ccc(-c2n[nH]c3ncc(-c4ccc5c(c4)CC[C@@H](N4C6COCC4C6)CC5)cc23)nc1 :: 56
COCCOc1ccc(-c2n[nH]c3ncc(-c4ccc5c(c4)CC[C@@H](N4C6COCC4C6)CC5)cc23)cc1 :: 84
Cc1cccnc1-c1ccc(-c2c[nH]c3ncc(-c4ccc5c(c4)CC[C@@H](N4C6COCC4C6)CC5)cc23)cc1 :: 40

Lookup: Would you kindly share the measured inhibition at 10 µM for O=C1OCCN1c1ccc(-c2n[nH]c3ncc(-c4ccc5c(c4)CC[C@@H](N4C6COCC4C6)CC5)cc23)cc1 ?
Found: 44
